molecular target: Androgen Receptor (Homo sapiens, UniProt P10275); construct: endogenous in cells; host or cells: VCaP cells; experiment: Androgen Receptor ELISA assay (PathScan AR ELISA) in VCaP cells: AR degradation, Dmax and DC50; assay type: cell-based; settings: VCaP cells; Table 36; read-out: VCaP DC50
Sequence (P10275 whole entry): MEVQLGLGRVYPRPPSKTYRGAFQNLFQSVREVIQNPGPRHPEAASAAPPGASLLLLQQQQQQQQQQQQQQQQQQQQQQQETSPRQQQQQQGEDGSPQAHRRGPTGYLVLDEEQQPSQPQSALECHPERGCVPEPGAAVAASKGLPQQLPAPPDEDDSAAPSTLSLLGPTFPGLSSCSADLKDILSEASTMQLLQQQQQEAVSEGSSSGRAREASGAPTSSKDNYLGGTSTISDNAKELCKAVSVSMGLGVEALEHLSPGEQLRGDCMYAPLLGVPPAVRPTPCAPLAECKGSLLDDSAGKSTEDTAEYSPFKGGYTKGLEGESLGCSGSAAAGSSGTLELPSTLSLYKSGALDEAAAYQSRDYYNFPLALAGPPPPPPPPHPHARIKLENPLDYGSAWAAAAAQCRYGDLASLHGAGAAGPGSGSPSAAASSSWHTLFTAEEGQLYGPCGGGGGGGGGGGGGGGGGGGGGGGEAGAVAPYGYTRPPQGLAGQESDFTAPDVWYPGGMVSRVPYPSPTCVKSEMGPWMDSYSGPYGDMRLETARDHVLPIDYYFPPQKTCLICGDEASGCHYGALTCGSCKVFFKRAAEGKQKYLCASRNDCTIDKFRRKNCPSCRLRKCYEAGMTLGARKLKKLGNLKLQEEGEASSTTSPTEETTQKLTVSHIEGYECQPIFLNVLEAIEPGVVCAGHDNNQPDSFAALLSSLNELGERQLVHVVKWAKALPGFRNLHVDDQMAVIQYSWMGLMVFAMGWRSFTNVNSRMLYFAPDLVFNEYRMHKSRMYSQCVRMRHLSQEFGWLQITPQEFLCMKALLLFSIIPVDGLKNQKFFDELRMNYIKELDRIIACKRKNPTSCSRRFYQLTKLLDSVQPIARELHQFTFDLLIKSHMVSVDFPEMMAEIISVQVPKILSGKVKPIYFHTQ
Item-by-item account of DC50
OBSERVABLE: DC50

COMPOUND	OBSERVABLE	EXPERIMENTAL RESULT
Cc1ncsc1-c1ccc([C@H](CO)NC(=O)[C@@H]2C[C@@H](O)CN2C(=O)[C@@H](NC(=O)CN2CCN(CCCc3ccc(C(=O)N[C@H]4C(C)(C)[C@H](Oc5ccc(C#N)c(Cl)c5)C4(C)C)cc3)CC2)C(C)(C)C)cc1 [Example 820]	DC50	< 50 nM
Cc1ncsc1-c1ccc([C@H](C)NC(=O)[C@@H]2C[C@@H](O)CN2C(=O)[C@@H](c2ncc(CCCN3CCN(c4ccc(C(=O)NC5C(C)(C)C(Oc6ccc(C#N)c(Cl)c6)C5(C)C)cn4)CC3)n2C)C(C)C)cc1 (some centres unmarked) [Example 701]	DC50	> 501 nM
Cc1ncsc1-c1ccc([C@H](C)NC(=O)[C@@H]2C[C@@H](O)CN2C(=O)[C@@H](NC(=O)COC2CN(CCNc3ccc(C(=O)N[C@H]4C(C)(C)[C@H](Oc5ccc(C#N)c(Cl)c5)C4(C)C)cn3)C2)C(C)(C)C)cc1 [Example 842]	DC50	< 50 nM
Cc1ncsc1-c1ccc(CNC(=O)[C@@H]2C[C@@H](O)CN2C(=O)[C@@H](NC(=O)CN2CCC3(CC2)CCN(c2ccc(C(=O)N[C@H]4C(C)(C)[C@H](Oc5ccc(C#N)c(Cl)c5)C4(C)C)cn2)CC3)C(C)(C)C)cc1 [Example 672]	DC50	< 50 nM
Cc1ncsc1-c1ccc([C@H](C)NC(=O)[C@@H]2C[C@@H](O)CN2C(=O)[C@@H](NC(=O)CN2CCN(CCCc3ccc(C(=O)N[C@H]4C(C)(C)[C@H](Oc5ccc(C#N)c(Cl)c5)C4(C)C)cc3)CC2)C(C)(C)C)cc1 [Example 783]	DC50	< 50 nM
Cc1ncsc1-c1ccc([C@H](C)NC(=O)C2C[C@@H](O)CN2C(=O)[C@@H](NC(=O)COCCN2CCN(c3ccc(C(=O)N[C@H]4C(C)(C)[C@H](Oc5ccc(C#N)c(Cl)c5)C4(C)C)cn3)C[C@H]2CO)C(C)(C)C)cc1 (some centres unmarked) [Example 788]	DC50	< 50 nM
Cc1ncsc1-c1ccc([C@H](C)NC(=O)[C@@H]2C[C@@H](O)CN2C(=O)[C@@H](NC(=O)CN[C@H]2C[C@H](OC3CCN(c4ccc(C(=O)N[C@H]5C(C)(C)[C@H](Oc6ccc(C#N)c(Cl)c6)C5(C)C)cn4)CC3)C2)C(C)(C)C)cc1 [Example 832]	DC50	< 50 nM
Cc1ncsc1-c1ccc([C@H](C)NC(=O)[C@@H]2C[C@@H](O)CN2C(=O)[C@@H](NC(=O)COCCN2CCN(Cc3cc(C(=O)N[C@@H](C)Cn4ccc(-c5ccc(C#N)c(Cl)c5)n4)n[nH]3)CC2)C(C)(C)C)cc1 [Example 790]	DC50	> 501 nM

----------
biological target: Androgen Receptor (Homo sapiens, UniProt P10275); construct: endogenous in cells; host or cells: VCaP cells; assay: Androgen Receptor ELISA assay (PathScan AR ELISA) in VCaP cells: AR degradation, Dmax and DC50; type: cell-based; settings: VCaP, read-out: VCaP Dmax (%)

COMPOUND	Dmax
Cc1ncsc1-c1ccc(CNC(=O)[C@@H]2C[C@@H](O)CN2C(=O)[C@@H](NC(=O)CCOc2ccc(CCOc3ccc(N4C(=S)N(c5ccc(C#N)c(C(F)(F)F)c5)C(=O)C4(C)C)cc3)cc2)C(C)(C)C)cc1	51 to 70%
Cc1ncsc1-c1ccc(CNC(=O)[C@@H]2C[C@@H](O)CN2C(=O)[C@@H](NC(=O)COCCCOCCOc2cccc(-c3ccc(N4C(=S)N(c5ccc(C#N)c(C(F)(F)F)c5)C(=O)C4(C)C)cc3)c2)C(C)(C)C)cc1	26 to 50%
Cc1ncsc1-c1ccc([C@H](CO)NC(=O)[C@@H]2C[C@@H](O)CN2C(=O)[C@@H](NC(=O)CN2CCN(CCC3CCN(c4ccc(C(=O)N[C@H]5C(C)(C)[C@H](Oc6ccc(C#N)c(Cl)c6)C5(C)C)cn4)C3)CC2)C(C)(C)C)cc1 (stereo partly shown)	> 71%
Cc1ncsc1-c1ccc([C@H](C)NC(=O)[C@@H]2C[C@@H](O)CN2C(=O)[C@@H](NC(=O)CN2CCN(CCCN3CCN(c4ccc(C(=O)N[C@H]5C(C)(C)[C@H](Oc6ccc(C#N)c(Cl)c6)C5(C)C)cn4)CC3)CC2)C(C)(C)C)cc1	51 to 70%

Hey, just so you know, these numbers are from patent US11427548B2.
